Assignment: determine reported solubility for the given molecules.
experiment: Solubility in water; assay type: physicochemical
Give just the number in µg/mL; leave the unit off.

(Q) What does the record list as solubility for `CCCS(=O)(=O)N1CCC(CNC(=O)c2ccc(Cl)cc2Cl)(c2ccccn2)CC1.Cl` ?
(A) 850

(Q) What does the record list as solubility for `CCCS(=O)(=O)N1CCC(CNC(=O)c2c(Cl)ccc(Cl)c2F)(c2ccccn2)CC1.Cl` ?
(A) 570

====

molecular target: Sodium- and chloride-dependent glycine transporter 1 (Homo sapiens); experiment: Inhibition of human glycine transporter 1
Sequence (P48067 whole entry): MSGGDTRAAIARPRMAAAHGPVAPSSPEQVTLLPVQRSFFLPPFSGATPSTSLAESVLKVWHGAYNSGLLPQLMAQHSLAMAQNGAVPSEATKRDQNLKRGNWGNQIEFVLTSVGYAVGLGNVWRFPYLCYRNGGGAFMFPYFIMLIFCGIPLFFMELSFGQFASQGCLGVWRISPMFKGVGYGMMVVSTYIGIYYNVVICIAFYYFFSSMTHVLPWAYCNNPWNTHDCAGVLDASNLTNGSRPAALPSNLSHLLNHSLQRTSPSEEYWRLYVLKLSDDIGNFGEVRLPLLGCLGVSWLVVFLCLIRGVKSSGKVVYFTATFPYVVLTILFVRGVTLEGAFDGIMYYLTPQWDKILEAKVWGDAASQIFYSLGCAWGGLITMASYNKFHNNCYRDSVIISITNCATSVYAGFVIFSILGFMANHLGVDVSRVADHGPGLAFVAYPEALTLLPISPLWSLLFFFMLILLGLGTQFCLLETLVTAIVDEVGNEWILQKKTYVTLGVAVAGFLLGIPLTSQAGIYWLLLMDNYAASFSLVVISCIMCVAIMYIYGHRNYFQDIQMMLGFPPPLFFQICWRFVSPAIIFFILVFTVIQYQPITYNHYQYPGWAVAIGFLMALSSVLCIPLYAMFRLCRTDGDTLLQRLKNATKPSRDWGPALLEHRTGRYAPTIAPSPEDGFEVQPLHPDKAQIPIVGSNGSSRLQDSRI
pIC50: −log10 of the molar value.
Threshold check on pIC50: at or above 8 gives Condition met, strictly below gives Condition not met.

(Q) Test whether the compound `CCCS(=O)(=O)N1CCC(CNC(=O)c2ccc(Cl)cc2)(c2ccccn2)CC1` records pIC50 of 8 or higher.
(A) Condition not met

(Q) Test whether the compound CCCS(=O)(=O)N1CCC(CNC(=O)c2ccccc2C)(C2CCCCN2C)CC1 (stereo unspecified) records pIC50 of 8 or higher.
(A) Condition not met

(Q) Test whether the compound `CCCS(=O)(=O)N1CCC(CNC(=O)c2ccccc2)(c2cccc(N3CCOCC3)n2)CC1` records pIC50 of 8 or higher.
(A) Condition not met

(Q) Test whether the compound `CCCS(=O)(=O)N1CCC(CNC(=O)c2ccccc2)(c2cc(C)ccn2)CC1` records pIC50 of 8 or higher.
(A) Condition not met

(Q) Test whether the compound `CCCS(=O)(=O)N1CCC(CNC(=O)c2ccccc2C)(c2ccccn2)CC1` records pIC50 of 8 or higher.
(A) Condition not met

(Q) Test whether the compound `CCCS(=O)(=O)N1CCC(CNC(=O)c2ccc(Cl)cc2Cl)(c2cc(C)ccn2)CC1` records pIC50 of 8 or higher.
(A) Condition met

(Q) Test whether the compound `CCCS(=O)(=O)N1CCC(CNC(=O)c2cccc(Cl)c2)(c2ccccn2)CC1` records pIC50 of 8 or higher.
(A) Condition not met

(Q) Test whether the compound `CCCS(=O)(=O)N1CCC(CNC(=O)c2ccccc2Cl)(c2cccc(N3CCOCC3)n2)CC1` records pIC50 of 8 or higher.
(A) Condition not met

(Q) Test whether the compound `CCCS(=O)(=O)N1CCC(c2ccccn2)([C@H](C)NC(=O)c2cc(F)cc(F)c2Cl)CC1` records pIC50 of 8 or higher.
(A) Condition met

(Q) Test whether the compound CCCS(=O)(=O)N1CCC(CNC(=O)c2ccccc2OC(F)(F)F)(C2CCCCN2C)CC1 (stereo unspecified) records pIC50 of 8 or higher.
(A) Condition not met
